- target_or_test_system: D(2) dopamine receptor (Rattus norvegicus)
- Sequence (P61169 whole entry): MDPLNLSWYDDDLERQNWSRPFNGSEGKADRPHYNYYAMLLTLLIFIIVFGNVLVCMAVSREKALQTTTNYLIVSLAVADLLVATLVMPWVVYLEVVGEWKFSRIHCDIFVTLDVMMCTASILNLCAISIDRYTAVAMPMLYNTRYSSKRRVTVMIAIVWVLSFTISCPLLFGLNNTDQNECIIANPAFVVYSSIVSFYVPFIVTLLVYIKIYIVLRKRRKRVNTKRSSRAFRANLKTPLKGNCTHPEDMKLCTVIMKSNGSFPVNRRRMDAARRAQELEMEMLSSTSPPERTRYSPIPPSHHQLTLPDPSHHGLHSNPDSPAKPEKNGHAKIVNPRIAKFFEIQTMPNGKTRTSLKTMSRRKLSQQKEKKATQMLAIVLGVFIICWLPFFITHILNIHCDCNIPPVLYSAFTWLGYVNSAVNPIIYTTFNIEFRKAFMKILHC
- test_method_notes: Inhibitory concentration against radioligand [3H](-)-sulpiride binding to Dopamine receptor D2 in rat
value_type: IC50

# molecule, value_type, recorded_result
measured = [
    ("CCCN(CCC)CCc1ccc(OCCc2ccccc2)c(O)c1", "IC50", "> 1000 nM"),
    ("CCCN(CCC)CCc1ccc(OC)c(OCCc2ccc(OC)cc2)c1", "IC50", "> 1000 nM"),
    ("COc1cccc(CCN2CCN(c3ccccn3)CC2)c1OCCc1ccccc1", "IC50", "137 nM"),
    ("CCCN(CCC)CCc1cccc(OC)c1OCc1ccccc1.O=C(O)C(=O)O", "IC50", "> 1000 nM"),
    ("COc1ccccc1N1CCN(CCc2cc(Cl)ccc2OCCc2ccccc2)CC1", "IC50", "88 nM"),
    ("COc1ccc(CCN2CCCC2)cc1OCCc1ccccc1", "IC50", "> 1000 nM"),
    ("CCCN(CCCO)CCc1ccc(OC)c(OCCc2ccccc2)c1", "IC50", "> 1000 nM"),
    ("CCCN(CCC)CCCCc1cc(Cl)ccc1OCCc1ccccc1", "IC50", "> 1000 nM"),
    ("CCCN(CCC)CCc1ccc(O)c(OCCc2ccccc2)c1", "IC50", "> 1000 nM"),
    ("CCCN(CCC)CCc1cc(Cl)ccc1OCc1ccccc1", "IC50", "337 nM"),
    ("Clc1ccc(OCCc2ccccc2)c(CCN2CCOCC2)c1", "IC50", "163 nM"),
    ("COc1ccc(CCN)cc1OCCc1ccccc1", "IC50", "> 1000 nM"),
]

----------
- target_or_test_system: Sigma non-opioid intracellular receptor 1 (Rattus norvegicus, UniProt Q9R0C9)
- Sequence (Q9R0C9 whole entry): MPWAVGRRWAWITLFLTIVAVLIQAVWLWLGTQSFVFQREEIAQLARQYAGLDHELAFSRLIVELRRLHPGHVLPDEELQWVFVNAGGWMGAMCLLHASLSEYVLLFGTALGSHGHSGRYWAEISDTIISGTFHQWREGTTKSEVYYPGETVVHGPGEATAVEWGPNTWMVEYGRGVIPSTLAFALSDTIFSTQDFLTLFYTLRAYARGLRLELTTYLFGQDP
- test_method_notes: Inhibitory concentration against radioligand [3H]3-PPP binding to Sigma opioid receptor type 1 in rat brain membrane
value_type: IC50 (nM)

# molecule, value_qualifier, recorded_result
data = [
    ("CCCN(CCc1ccc(OC)c(OCCc2ccccc2)c1)CCC(C)C", "=", 2.9),
    ("Clc1ccc(OCCc2ccccc2)c(CCCN2CCN(c3ncccn3)CC2)c1", "=", 169),
    ("CCCN(CCC)CCc1cc(Br)ccc1OCCCc1ccccc1", "=", 44),
    ("COc1ccc(CCN2CCN(c3ccccn3)CC2)cc1OCCc1ccccc1", "=", 112),
    ("Clc1ccc(OCCc2ccccc2)c(CCN2CCN(c3ccccn3)CC2)c1", ">", 1000),
    ("CCCN(CCC)CCc1ccc(O)c2c1-c1ccccc1CO2", "=", 558),
    ("CCCN(CCC)CCc1ccccc1OCCc1ccccc1", "=", 15),
    ("CCCN(CCC)CCc1cc(Cl)cc(Cl)c1OCCc1ccccc1", "=", 281),
    ("CCCN(CCC)CCc1ccc(OCCc2ccccc2)c(O)c1", "=", 25),
    ("CCCN(CCC)CCc1cccc(OC)c1OCCCc1ccccc1", "=", 1.7),
    ("COc1cccc(CCN2CCN(c3ccccc3)CC2)c1OCCc1ccccc1", "=", 328),
    ("CCCN(CCC)CCc1cc(Cl)ccc1OCc1ccccc1", "=", 118),
]

----------
- target_or_test_system: D(2) dopamine receptor (Rattus norvegicus)
- test_method_notes: Inhibitory concentration against radioligand [3H](-)-sulpiride binding to Dopamine receptor D2 in rat
value_type: log10 of IC50 (log10 of the value in nM)

# molecule, value_type, recorded_result
measured = [
    ("Clc1ccc(OCCc2ccccc2)c(CCCN2CCN(c3ccccn3)CC2)c1", "log10 of IC50", 1.97),
    ("COc1ccccc1N1CCN(CCCc2cc(Cl)ccc2OCCc2ccccc2)CC1", "log10 of IC50", 1.20),
    ("Clc1ccc(OCCc2ccccc2)c(CCN2CCCC2)c1", "log10 of IC50", 1.84),
    ("CCCN(CCc1ccc(OC)c(OCCc2ccccc2)c1)CCC(C)C", "log10 of IC50", 2.83),
    ("Clc1ccc(OCCc2ccccc2)c(CCCN2CCN(c3ncccn3)CC2)c1", "log10 of IC50", 2.06),
]
